Origin of the recorded values: patent US20120053115A1

- Tested on: S. haemolyticus Met-S (code 1730)
- REPORTED_CONDITIONS: 0.02% albumine bovine serum, read after 24 h
Reported Minimal Inhibitory Concentrations values for the following compounds.
READOUT_TYPE: Minimal Inhibitory Concentrations (µg/mL)

| STRUCTURE_SMILES_STRING | READOUT_TYPE | UNIT_OF_MEASURE | COMPARISON_OPERATOR | OBS_VALUE |
| --- | --- | --- | --- | --- |
| C=C1NC(=O)[C@H](C(C)C)NC(=O)[C@H](NC(=O)/C(=C/C)NC(=O)[C@@H](N)[C@@H](C)CC)CSC[C@@H](C(=O)N[C@H]2C(=O)N3CCC[C@H]3C(=O)NCC(=O)N[C@H](C(=O)N[C@H](C(=O)N[C@@H]3CSC[C@@H]4NC(=O)CNC(=O)[C@@H](CSC[C@@H]5NC(=O)[C@H](Cc6c[nH]cn6)NC(=O)[C@@H](CSC[C@@H](C(=O)NCCN)NC5=O)NC4=O)NC(=O)CNC(=O)CNC(=O)CNC(=O)[C@H](CCC(=O)NCCN)NC3=O)[C@@H](C)O)CS[C@H]2C)NC(=O)[C@H](Cc2c[nH]c3ccccc23)NC1=O | Minimal Inhibitory Concentrations | µg/mL | < | 0.125 |
| C=C1NC(=O)[C@H](C(C)C)NC(=O)[C@H](NC(=O)/C(=C/C)NC(=O)[C@@H](N)[C@@H](C)CC)CSC[C@@H](C(=O)N[C@H]2C(=O)N3CCC[C@H]3C(=O)NCC(=O)N[C@H](C(=O)N[C@H](C(=O)N[C@@H]3CSC[C@@H]4NC(=O)CNC(=O)[C@@H](CSC[C@@H]5NC(=O)[C@H](Cc6c[nH]cn6)NC(=O)[C@@H](CSC[C@@H](C(=O)NCCCN(C)C)NC5=O)NC4=O)NC(=O)CNC(=O)CNC(=O)CNC(=O)[C@H](CCC(=O)NCCCN(C)C)NC3=O)[C@@H](C)O)CS[C@H]2C)NC(=O)[C@H](Cc2c[nH]c3ccccc23)NC1=O | Minimal Inhibitory Concentrations | µg/mL | < | 0.125 |
| C=CCNC(=O)CC[C@@H]1NC(=O)[C@H](NC(=O)[C@@H](NC(=O)[C@@H]2CS[C@@H](C)[C@@H](NC(=O)[C@@H]3CSC[C@@H](NC(=O)/C(=C/C)NC(=O)[C@@H](N)[C@@H](C)CC)C(=O)N[C@@H](C(C)C)C(=O)NC(=C)C(=O)N[C@@H](Cc4c[nH]c5ccccc45)C(=O)N3)C(=O)N3CCC[C@H]3C(=O)NCC(=O)N2)[C@@H](C)O)CSC[C@@H]2NC(=O)CNC(=O)[C@@H](CSC[C@@H]3NC(=O)[C@H](Cc4c[nH]cn4)NC(=O)[C@@H](CSC[C@@H](C(=O)NCC=C)NC3=O)NC2=O)NC(=O)CNC(=O)CNC(=O)CNC1=O | Minimal Inhibitory Concentrations | µg/mL | = | 4 |
| C=C1NC(=O)[C@H](C(C)C)NC(=O)[C@H](NC(=O)/C(=C/C)NC(=O)[C@@H](N)[C@@H](C)CC)CSC[C@@H](C(=O)N[C@H]2C(=O)N3CCC[C@H]3C(=O)NCC(=O)N[C@H](C(=O)N[C@H](C(=O)N[C@@H]3CSC[C@@H]4NC(=O)CNC(=O)[C@@H](CSC[C@@H]5NC(=O)[C@H](Cc6c[nH]cn6)NC(=O)[C@@H](CSC[C@@H](C(=O)NCCOC)NC5=O)NC4=O)NC(=O)CNC(=O)CNC(=O)CNC(=O)[C@H](CCC(=O)NCCOC)NC3=O)[C@@H](C)O)CS[C@H]2C)NC(=O)[C@H](Cc2c[nH]c3ccccc23)NC1=O | Minimal Inhibitory Concentrations | µg/mL | = | 4 |
| C=C1NC(=O)[C@H](C(C)C)NC(=O)[C@H](NC(=O)/C(=C/C)NC(=O)[C@@H](N)[C@@H](C)CC)CSC[C@@H](C(=O)N[C@H]2C(=O)N3CCC[C@H]3C(=O)NCC(=O)N[C@H](C(=O)N[C@H](C(=O)N[C@@H]3CSC[C@@H]4NC(=O)CNC(=O)[C@@H](CSC[C@@H]5NC(=O)[C@H](Cc6c[nH]cn6)NC(=O)[C@@H](CSC[C@@H](C(=O)NC6CCCCC6)NC5=O)NC4=O)NC(=O)CNC(=O)CNC(=O)CNC(=O)[C@H](CCC(=O)NC4CCCCC4)NC3=O)[C@@H](C)O)CS[C@H]2C)NC(=O)[C@H](Cc2c[nH]c3ccccc23)NC1=O | Minimal Inhibitory Concentrations | µg/mL | = | 4 |
| C=C1NC(=O)[C@H](C(C)C)NC(=O)[C@H](NC(=O)/C(=C/C)NC(=O)[C@@H](N)[C@@H](C)CC)CSC[C@@H](C(=O)N[C@H]2C(=O)N3CCC[C@H]3C(=O)NCC(=O)N[C@H](C(=O)N[C@H](C(=O)N[C@@H]3CSC[C@@H]4NC(=O)CNC(=O)[C@@H](CSC[C@@H]5NC(=O)[C@H](Cc6c[nH]cn6)NC(=O)[C@@H](CSC[C@@H](C(=O)N(C)C)NC5=O)NC4=O)NC(=O)CNC(=O)CNC(=O)CNC(=O)[C@H](CCC(=O)N(C)C)NC3=O)[C@@H](C)O)CS[C@H]2C)NC(=O)[C@H](Cc2c[nH]c3ccccc23)NC1=O | Minimal Inhibitory Concentrations | µg/mL | = | 8 |
